# TARGET OR SYSTEM: human cannabinoid receptor 1 (huCB1), full length, expressed on cells (human, UniProt P21554 1-472)
# Sequence (P21554 whole entry): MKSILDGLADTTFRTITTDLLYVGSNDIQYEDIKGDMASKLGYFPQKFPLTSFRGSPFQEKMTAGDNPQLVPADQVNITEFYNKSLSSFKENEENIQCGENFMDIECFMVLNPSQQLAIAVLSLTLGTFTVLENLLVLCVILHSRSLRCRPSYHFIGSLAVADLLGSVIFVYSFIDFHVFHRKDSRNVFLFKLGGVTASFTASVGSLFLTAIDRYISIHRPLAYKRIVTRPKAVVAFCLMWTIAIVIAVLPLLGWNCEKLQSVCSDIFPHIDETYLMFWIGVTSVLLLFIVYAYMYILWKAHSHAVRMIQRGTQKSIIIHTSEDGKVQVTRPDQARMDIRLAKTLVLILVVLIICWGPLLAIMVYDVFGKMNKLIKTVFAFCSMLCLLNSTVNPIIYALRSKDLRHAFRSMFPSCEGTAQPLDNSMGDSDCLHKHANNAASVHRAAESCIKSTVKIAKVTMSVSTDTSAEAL
# ASSAY SUMMARY: cell-based or functional assay
// values below are reported n = 1 IC50 (nM), cAMP antagonist assay
Numbers only; they are read as nM.

Which n = 1 IC50 (nM), cAMP antagonist assay reading was recorded for the binder LIBC528148-1 (antibody, V domains shown) VH: QVQLQESGPGLVKPSQTLSLTCTVSGGSIRRGGDYWSWIRQHPGKGLEWIGHIYQSGQTKYNPKLKGRATISVDTYKNQFSLKLSSVTAADTAVYYCARDYDILTGYSYYYYGMDVWGQGTTVTVSS VL: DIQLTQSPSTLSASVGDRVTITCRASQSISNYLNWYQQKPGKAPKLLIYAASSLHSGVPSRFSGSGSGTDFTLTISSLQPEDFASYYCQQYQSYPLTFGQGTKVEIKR ?
9.1

Please give the measured n = 1 IC50 (nM), cAMP antagonist assay for this binder: LIBC528131-1 (antibody, V domains shown) VH: QVQLQESGPGLVKPSQTLSLTCTVSGGSIRRGGDYWSWIRQHPGKGLEWIGHIYQTGQTAYNPNLEGRATISVNTYKNQFSLKLSSVTAADTAVYYCARDYDILTGYSYYYYGMDVWGQGTTVTVSS VL: EIVLTQSPATLSLSPGERATLSCRASQSVSSYLGWYQQKPGQAPRLLIYGASSRATGIPDRFSGSGSGTDFTLTISRLEPEDFAVYYCQQYGSSPRTFGQGTKVEIKR
6.63

Fill in: n = 1 IC50 (nM), cAMP antagonist assay of LIBC523857-1 (antibody, V domains shown) VH: QVQLQESGPGLVKPSQTLSLTCTVSGGSIRRGGDYWSWIRQHPGKGLEWIGHIYQTGQTAYNPRLEGRATISVNTYKNQFSLKLSSVTAADTAVYYCARDYDILTGYSYYYYGMDVWGQGTTVTVSS VL: DIVMTQSPLSLPVTPGEPASISCRSSQSLLSSTGANYLDWYLQKPGQSPQLLIYLGSNRASGVPDRFSGSGSGTDFTLKISRVEAEDVGVYYCRQAVELPRTFGQGTKVEIKR is ___
13.4
